Read-out record for Endothelial lipase (EL) (Homo sapiens (Human), UniProt Q9Y5X9): IC50

Consider the reported IC50 for these molecules:
molecule	val
O=C(c1nnc(N(CC(F)(F)F)[C@H]2CCNC2=O)o1)c1nc2ccc(-c3ccccc3)cc2s1	< 10 nM
O=C(c1nnc(N(Cc2ccccc2)[C@H]2CCNC2=O)o1)c1nc2ccc(-c3ccccc3)cc2s1	11 nM

Consider the record given below.
Prompt: Give the reported IC50 for O=C(c1nnc(C2CCS(=O)(=O)N2)o1)c1nc2ccc(-c3ccccc3)cc2s1 (stereo not drawn) (system: Endothelial lipase (EL) (Homo sapiens (Human), UniProt Q9Y5X9)).
Sequence (Q9Y5X9 21-500): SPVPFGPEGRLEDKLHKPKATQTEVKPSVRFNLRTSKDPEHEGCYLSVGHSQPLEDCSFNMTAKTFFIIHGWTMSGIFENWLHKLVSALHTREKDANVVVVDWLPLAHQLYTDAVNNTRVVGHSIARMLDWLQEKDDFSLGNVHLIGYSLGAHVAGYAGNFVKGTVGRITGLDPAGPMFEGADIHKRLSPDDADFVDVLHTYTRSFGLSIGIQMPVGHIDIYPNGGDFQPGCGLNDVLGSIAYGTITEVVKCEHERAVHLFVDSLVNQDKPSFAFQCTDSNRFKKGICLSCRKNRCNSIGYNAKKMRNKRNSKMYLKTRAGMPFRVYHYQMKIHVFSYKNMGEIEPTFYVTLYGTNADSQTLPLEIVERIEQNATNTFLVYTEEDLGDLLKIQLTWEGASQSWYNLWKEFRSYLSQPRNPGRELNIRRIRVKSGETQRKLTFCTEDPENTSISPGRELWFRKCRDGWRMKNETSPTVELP
Completion: < 10 nM

src = patent US9169240B2
